// values below are pIC50; system is p110α (Homo sapiens, UniProt P42336)
Sequence (P42336 whole entry): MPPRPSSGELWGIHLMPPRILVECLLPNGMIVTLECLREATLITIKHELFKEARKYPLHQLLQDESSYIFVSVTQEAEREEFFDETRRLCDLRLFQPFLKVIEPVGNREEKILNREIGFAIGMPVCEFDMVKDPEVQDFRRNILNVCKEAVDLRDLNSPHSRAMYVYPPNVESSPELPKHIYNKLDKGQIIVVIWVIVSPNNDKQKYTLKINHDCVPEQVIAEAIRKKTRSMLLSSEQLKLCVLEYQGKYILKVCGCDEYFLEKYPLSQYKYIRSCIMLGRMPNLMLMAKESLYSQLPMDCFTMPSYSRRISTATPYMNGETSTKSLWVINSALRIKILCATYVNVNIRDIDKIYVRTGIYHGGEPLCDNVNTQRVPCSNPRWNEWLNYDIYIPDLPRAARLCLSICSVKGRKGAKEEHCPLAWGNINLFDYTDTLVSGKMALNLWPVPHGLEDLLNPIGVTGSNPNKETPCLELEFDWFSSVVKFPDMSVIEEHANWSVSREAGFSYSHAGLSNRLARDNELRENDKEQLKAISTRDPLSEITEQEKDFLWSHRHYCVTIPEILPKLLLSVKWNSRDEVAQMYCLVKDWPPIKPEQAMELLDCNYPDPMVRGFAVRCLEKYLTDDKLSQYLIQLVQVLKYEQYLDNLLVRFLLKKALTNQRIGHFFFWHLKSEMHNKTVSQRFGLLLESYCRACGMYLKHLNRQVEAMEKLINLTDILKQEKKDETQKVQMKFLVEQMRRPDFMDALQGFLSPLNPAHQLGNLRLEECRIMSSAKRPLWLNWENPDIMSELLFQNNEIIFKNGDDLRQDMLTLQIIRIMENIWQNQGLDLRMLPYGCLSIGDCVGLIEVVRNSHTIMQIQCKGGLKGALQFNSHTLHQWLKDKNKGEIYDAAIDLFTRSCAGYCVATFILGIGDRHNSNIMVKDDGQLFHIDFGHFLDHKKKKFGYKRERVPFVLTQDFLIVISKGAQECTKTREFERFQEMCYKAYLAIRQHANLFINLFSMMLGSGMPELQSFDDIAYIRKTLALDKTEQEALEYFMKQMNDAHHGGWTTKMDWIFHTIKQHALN
Sequence (P27986 whole entry partner): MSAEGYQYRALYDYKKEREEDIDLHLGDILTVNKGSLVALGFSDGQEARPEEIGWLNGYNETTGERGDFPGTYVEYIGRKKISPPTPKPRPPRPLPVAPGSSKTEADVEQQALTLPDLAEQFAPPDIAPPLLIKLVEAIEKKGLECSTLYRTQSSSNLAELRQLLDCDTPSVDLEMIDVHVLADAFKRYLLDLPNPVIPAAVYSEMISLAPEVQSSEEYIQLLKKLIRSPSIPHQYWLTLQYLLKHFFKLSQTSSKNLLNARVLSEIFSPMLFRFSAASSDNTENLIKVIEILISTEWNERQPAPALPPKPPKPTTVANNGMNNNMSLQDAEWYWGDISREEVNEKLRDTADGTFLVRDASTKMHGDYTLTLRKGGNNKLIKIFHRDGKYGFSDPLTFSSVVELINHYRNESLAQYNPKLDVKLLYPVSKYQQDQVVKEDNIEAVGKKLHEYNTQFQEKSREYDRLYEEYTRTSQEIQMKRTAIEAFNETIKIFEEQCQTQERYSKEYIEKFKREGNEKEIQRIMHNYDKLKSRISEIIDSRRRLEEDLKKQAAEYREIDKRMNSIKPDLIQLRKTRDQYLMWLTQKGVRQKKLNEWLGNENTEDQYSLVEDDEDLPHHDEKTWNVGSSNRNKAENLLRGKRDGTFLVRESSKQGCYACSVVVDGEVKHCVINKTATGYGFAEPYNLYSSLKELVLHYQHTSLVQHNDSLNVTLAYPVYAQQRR
pIC50: −log10 of the molar value.

{"compound": "FC(F)c1nc2ccccc2n1-c1nc(NC2(c3ccccc3)CCCCC2)nc(N2CCOCC2)n1", "targetOrTestSystem": "p110α (Homo sapiens, UniProt P42336)", "pIC50": "< 6.30"}
{"compound": "FC(F)c1nc2ccccc2n1-c1nc(NCc2ccccc2)nc(N2CCOCC2)n1 [Ref. 1, reference compound]", "targetOrTestSystem": "p110α (Homo sapiens, UniProt P42336)", "pIC50": "6.70 to 7.00"}
{"compound": "FC(F)c1nc2ccccc2n1-c1nc(NC2(Cc3ccccc3)CCCC2)nc(N2CCOCC2)n1", "targetOrTestSystem": "p110α (Homo sapiens, UniProt P42336)", "pIC50": "< 6.30"}

[ask] Quick one: pIC50 of `FC(F)c1nc2ccccc2n1-c1nc(NC2(Cc3ccccc3Cl)CC2)nc(N2CCOCC2)n1` ?
[reply] < 6.30

[ask] Fill in: pIC50 of `FC(F)c1nc2ccccc2n1-c1nc(NC2(Cc3ccccc3)CC2)nc(N2CCOCC2)n1` is ___
[reply] < 6.30

[ask] Requested field: pIC50. Item: `FC(F)c1nc2ccccc2n1-c1nc(NC2(Cc3ccccc3)CCC2)nc(N2CCOCC2)n1`
[reply] < 6.30

[ask] Return reported pIC50; argument: `Cc1ccccc1CC1(Nc2nc(N3CCOCC3)nc(-n3c(C(F)F)nc4ccccc43)n2)CC1`
[reply] < 6.30
